This collection of values is drawn from patent US20230312473A1.

Assay: Solubility of compound 1 in the solvent under evaluation at 22° C. and 65° C. (crystallization study)
Type: physicochemical
Conditions: 5% water in isopropanol, 65 °C, organic solvent or mixture, solvent: 5% water in isopropanol; read-out: Solubility at 65° C.
PARAMETER_MEASURED: solubility

Look up and state reported solubility for Nc1ncc(-c2cc(N3C[C@@H]4C[C@H]3CO4)nc(N3CCC(F)(F)C3)n2)cc1OC(F)F [Compound 1] < 50 mg/mL

* * *

Test: Solubility of compound 1 in the solvent under evaluation at 22° C. and 65° C. (crystallization study)
Format: physicochemical
Conditions: 15% water in propanol, 22 °C, organic solvent or mixture, thermodynamic from solid, solvent: 15% water in propanol; read-out: Solubility at 22° C.
PARAMETER_MEASURED: solubility

Look up and state reported solubility for `Nc1ncc(-c2cc(N3C[C@@H]4C[C@H]3CO4)nc(N3CCC(F)(F)C3)n2)cc1OC(F)F` < 50 mg/mL

* * *

Experiment: Solubility of compound 1 in the solvent under evaluation at 22° C. and 65° C. (crystallization study)
Assay type: physicochemical
Conditions: Methanol, 65 °C, organic solvent or mixture, thermodynamic from solid, solvent: Methanol; read-out: Solubility at 65° C.
PARAMETER_MEASURED: solubility

Look up and state reported solubility for Nc1ncc(-c2cc(N3C[C@@H]4C[C@H]3CO4)nc(N3CCC(F)(F)C3)n2)cc1OC(F)F [Compound 1] < 50 mg/mL
